Ref: patent US20210324050A1

target or test system: T1, GII.4 Sydney 2012 shell (S) domain (UniProt P54635 1-221)
T1 chain: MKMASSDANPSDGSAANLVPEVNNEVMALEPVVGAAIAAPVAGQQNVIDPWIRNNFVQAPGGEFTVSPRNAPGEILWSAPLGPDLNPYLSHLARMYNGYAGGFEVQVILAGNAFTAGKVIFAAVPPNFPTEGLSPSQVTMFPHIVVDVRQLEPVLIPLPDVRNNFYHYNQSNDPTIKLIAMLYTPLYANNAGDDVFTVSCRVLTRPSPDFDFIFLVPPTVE
assay procedure: ELISA
Recorded EC50 values for a group of binders are listed next.
Dear colleague, please return just the value in µg/mL, with no unit written.

Output EC50 of NORO-202A.1 (antibody, V domains shown) VH: QVQLVQSGAEVKKPGASVKVSCKASEYTFTGYYLQWVRQAPGHGLEWMGWINPSGGTKYSQKFQGRVTMTRDTSITTVYMELSRLRSDDTAVYYCARDLLRNWGDHDAFDVWGQGTMVTVSS VL: QSVLTQPPSASETPGQGVTISCSGSSSNIGSNFVCWYQQVPGTAPKLLIYKNNQRPSGVPDRFSGSKSGTSASLAISGLRSEDEADYYCSAWDDSLSGPVFGGGTKLTVL
0.2

Quote EC50 reported for NORO-279A (antibody, V domains shown) VH: QVQLVESGGGVVQPGRSLRLSCAASGFTFTKYGMHWVRQAPGKGLEWVAFIAYDGSVKYYGDSAKGRFAISRDNPKNTVYLQMNSLRAEDTAVYYCAKVEIHYYSNSLLGMDVWGQGTLVTVSS VL: QSVLTQPPSASGTPGQRVTISCSGGNSNIGISYVYWYQHLPGTAPKLLISKNNLRPSGVPDRFSASKSGTSASLAISGLRSEDEAEYYCATLDINMTWVFGGGTKLTVL please.
0.4

Tell me measured EC50 for NORO-310A (antibody, V domains shown) VH: EVQLVESGGGLVRPGESLRLSCVASGFSVSDNYMSWVRQAPGKGLQWVSVIYSGGTTFYTDSVKGRFTISRDKSKNTLFLQMNSLRAEDTAVYFCTRDPSQYYDSRGHYYQTFTPSFDSWGQGTLVTVSS VL: DIQMTQSPSVMSASVGDRVTITCRASQDISDYLAWFQQKPGKVPKRLIYAASSLQNGVPSRFSGSGSGTEFTLTISSLQPEDFATYYCLQHDTYPLTFGGGTKVEIK please.
1.8

Please give the documented EC50 of NORO-312A (antibody, V domains shown) VH: QVQLVESGGALVKPGESLRLSCAASGFTFSDSYMSWIRQAPGKGLEWVAYISGIMSSTNYADSVKGRFTISRDNGKNSVYLQMNNLRAEDTAVYYCARDAQYCSGGRCYLVFDYWGQGTLVTVSS VL: QSVLTQPPSVSGAPGQRVTISCTGSSSNIGAGYEVHWYQQLPGAAPKLIIYGNNNRPSGVPDRFSGSKSGTSASLAITGLQADDEADYYCQSYDNRLRVFGGGTKLTVL
9.9

Name the recorded EC50 of the item NORO-296A (antibody, V domains shown) VH: QVQLVESGGGLVKPGGSLRLSCAASGFTFSEYYMSWVRQAPGKALEWVSYITSSFSSTSYADSVKGRFVISRDNAKNSLYLQMNSLRVEDTAVYYCARYGAEYGSRSFYFLDWGQGTLVTVSS VL: QSVLTQPPSVSGAPEQRVTISCTGSSSNIGAGYDVHWYQVLPGIAPKLLIYDNNKRPSGVPDRFSGSKSGTSASLAITGLQAEDEADYYCQSYDSRLSSNVVFGGGTKLTVL in your answer.
12.5

Please give measured EC50 of the following entry: NORO-251A (antibody, V domains shown) VH: QVQLVESGGGVVQPGRSLRLSCAASGFTFRSYGIHWVRQAPGKGLEWVALISYDGSSKYYADSVKGRFTISRDNSKNTLYLQMNSLRSEDTAVYYCAKVRLTSYSIGWFSFDYWGQGTLVTVSS VL: QSVLTQPPSVSAAPGQKVTISCSGSSSNIANYYVSWYQQLPGRAPKLLIYDNNKRPSGIPDRISGSKSGTSATLGITGLQTGDEADYYCGTWDTSLSAWVFGGGTKLTVL
4.1
